Listing: rat MASP2 IC50 of selected binders
subject-of-test: recombinant rat MASP2 active protease (amino acids 296-685, C-terminal His Tag) (rat, UniProt Q9JJS8 296-685)
Sequence (Q9JJS8 other isoform, or with tags, fused parts or gaps limits assumed): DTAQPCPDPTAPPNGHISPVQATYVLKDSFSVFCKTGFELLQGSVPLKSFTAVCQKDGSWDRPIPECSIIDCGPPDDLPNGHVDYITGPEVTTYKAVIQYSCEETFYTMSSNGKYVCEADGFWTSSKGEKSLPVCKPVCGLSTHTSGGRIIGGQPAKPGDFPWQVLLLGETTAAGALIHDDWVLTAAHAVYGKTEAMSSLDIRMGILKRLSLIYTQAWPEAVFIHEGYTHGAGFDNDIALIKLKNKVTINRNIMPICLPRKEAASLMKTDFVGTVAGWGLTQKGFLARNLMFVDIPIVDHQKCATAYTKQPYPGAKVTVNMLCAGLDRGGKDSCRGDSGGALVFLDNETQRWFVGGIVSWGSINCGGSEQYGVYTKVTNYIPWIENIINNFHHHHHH
experimental-protocol: cell-based or functional assay
Numbered stars: 1 amine (or outer) side, 2 acyl side, 3 side chain; on linkers, the order of the positions; unused ones are H or OH. Bridge positions count the residues as written; N and C are the ends. Square brackets hold non-standard residues; d marks the D form. Ends that are not written are not given here. Oic = O=C(O)[C@@H]1C[C@@H]2CCCC[C@@H]2N1; βPro(3S) = O=C([C@H]1CCN([*:1])C1)[*:2]; tBuAla = CC(C)(C)C[C@H](N)C(=O)O; Pen = CC(C)(S)[C@H](N)C(=O)O; NMeA = CN[C@@H](C)C(=O)O; Sar = CNCC(=O)O
Number in µM, nothing else.

Would you please look over these solved cases?
[[record]]
binder = "[Sar]ICSRSLP[Oic]I[Pen]IP[βPro(3S)]-OH (disulfide 3-11; N-terminus assumed; SMILES CC[C@H](C)[C@H](NC(=O)CNC)C(=O)N[C@H]1CSSC(C)(C)[C@@H](C(=O)N[C@H](C(=O)N2CCC[C@H]2C(=O)N2CC[C@H](C(=O)O)C2)[C@@H](C)CC)NC(=O)[C@H]([C@@H](C)CC)NC(=O)[C@@H]2C[C@@H]3CCCC[C@@H]3N2C(=O)[C@@H]2CCCN2C(=O)[C@H](CC(C)C)NC(=O)[C@H](CO)NC(=O)[C@H](CCCNC(=N)N)NC(=O)[C@H](CO)NC1=O) [Example 456: ((N-Me)G)-IC+SRSLP-(Oic)-I-(Pen)+IP-((S)-Pyrrolidine-3-carboxylic acid)-OH]"
reported_value = 0.03

[[record]]
binder = "[Sar]ICSRS[tBuAla]PPI[Pen]IP-{PEG5‑CH2CO2H (18 atoms)-NH2} (disulfide 3-11) [Example 55: ((N-Me)G)-IC+SRS-((tBu)A)-PPI-(Pen)+IP-(PEG5-CH2CO2H (18 atoms))-NH2]"
reported_value = 0.027


Now consider the entry below.
Specify reported rat MASP2 IC50 for the binder shown: [NMeA]ICSRS[tBuAla]P[(3R,6R)‑1,1‑Difluoro‑5‑azaspiro(2.4)heptane‑6‑carboxylic acid (enantiomer 1)]I[Pen]IP-NH2 (disulfide 3-11)
0.0047

Just for reference, patent US20210246166A1 is where these values come from.
